# credit: patent US9416115B2

Biological target: wild-type human cardiac sodium channel, hNav1.5 (Homo sapiens)
Sequence (Q14524 whole entry): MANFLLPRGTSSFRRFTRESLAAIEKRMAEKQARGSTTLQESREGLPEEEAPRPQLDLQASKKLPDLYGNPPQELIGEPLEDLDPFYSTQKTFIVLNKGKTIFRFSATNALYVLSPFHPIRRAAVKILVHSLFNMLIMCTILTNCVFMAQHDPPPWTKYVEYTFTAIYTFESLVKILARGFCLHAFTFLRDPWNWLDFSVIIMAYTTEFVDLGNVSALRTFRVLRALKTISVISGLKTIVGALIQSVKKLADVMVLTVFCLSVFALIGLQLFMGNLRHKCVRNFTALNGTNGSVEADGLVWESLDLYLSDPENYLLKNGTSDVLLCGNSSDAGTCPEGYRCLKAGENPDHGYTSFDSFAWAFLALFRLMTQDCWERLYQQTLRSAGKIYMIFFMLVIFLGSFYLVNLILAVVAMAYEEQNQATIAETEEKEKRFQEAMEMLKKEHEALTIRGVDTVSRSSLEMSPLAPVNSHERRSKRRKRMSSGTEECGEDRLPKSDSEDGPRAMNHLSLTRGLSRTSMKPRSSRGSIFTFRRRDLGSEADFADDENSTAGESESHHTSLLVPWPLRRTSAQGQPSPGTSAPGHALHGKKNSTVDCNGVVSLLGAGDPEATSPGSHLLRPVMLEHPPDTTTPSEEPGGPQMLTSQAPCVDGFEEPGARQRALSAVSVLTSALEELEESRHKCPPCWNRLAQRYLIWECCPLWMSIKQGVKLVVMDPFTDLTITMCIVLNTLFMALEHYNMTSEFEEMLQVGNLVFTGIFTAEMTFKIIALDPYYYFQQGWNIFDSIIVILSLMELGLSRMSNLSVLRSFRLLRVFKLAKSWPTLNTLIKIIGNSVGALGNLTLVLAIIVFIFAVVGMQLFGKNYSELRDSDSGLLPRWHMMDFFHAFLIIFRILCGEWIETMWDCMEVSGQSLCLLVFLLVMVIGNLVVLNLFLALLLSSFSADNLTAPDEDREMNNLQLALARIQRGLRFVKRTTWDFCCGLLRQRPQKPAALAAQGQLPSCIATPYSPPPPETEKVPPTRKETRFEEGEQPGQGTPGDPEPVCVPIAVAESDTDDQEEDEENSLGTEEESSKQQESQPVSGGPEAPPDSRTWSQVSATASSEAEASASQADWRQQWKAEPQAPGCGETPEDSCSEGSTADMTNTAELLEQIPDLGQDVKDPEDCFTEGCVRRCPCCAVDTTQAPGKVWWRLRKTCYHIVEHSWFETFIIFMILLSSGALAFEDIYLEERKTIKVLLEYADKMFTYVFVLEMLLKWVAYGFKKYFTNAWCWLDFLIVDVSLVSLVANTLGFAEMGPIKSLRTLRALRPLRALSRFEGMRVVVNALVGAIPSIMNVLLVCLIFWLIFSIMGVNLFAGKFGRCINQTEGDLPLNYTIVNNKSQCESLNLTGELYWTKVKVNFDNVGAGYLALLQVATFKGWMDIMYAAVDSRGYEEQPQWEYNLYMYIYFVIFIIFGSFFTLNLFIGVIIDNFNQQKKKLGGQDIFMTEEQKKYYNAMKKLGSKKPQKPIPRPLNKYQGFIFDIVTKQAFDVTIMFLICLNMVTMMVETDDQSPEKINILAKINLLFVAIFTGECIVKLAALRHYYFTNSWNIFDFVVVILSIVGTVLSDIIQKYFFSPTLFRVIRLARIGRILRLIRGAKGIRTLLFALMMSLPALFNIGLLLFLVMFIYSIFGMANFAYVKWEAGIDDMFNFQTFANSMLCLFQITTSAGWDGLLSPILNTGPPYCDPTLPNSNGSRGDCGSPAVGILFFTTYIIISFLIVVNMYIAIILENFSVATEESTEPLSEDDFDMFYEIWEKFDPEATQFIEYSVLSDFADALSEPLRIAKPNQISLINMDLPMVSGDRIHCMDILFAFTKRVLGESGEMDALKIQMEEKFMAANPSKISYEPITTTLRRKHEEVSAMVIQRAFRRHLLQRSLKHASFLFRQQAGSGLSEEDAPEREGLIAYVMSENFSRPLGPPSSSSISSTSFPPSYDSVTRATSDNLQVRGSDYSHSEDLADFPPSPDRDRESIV
Experiment: Late INa screening assay (QPatch whole cell patch clamp, Tefluthrin-induced late current)
Assay type: cell-based
Details: 0.3 uM; HEK293 hNav1.5; percent block of late INa
metric_name: inhibition at 0.3 µM (%)
Field: numeric (%). Do not append units.

[ask] Give the measured inhibition at 0.3 µM of Cc1cnc(COc2noc3ccc(-c4ccc(OC(F)(F)F)cc4)cc23)cn1 [Example 73] .
[reply] 20.4

[ask] Would you kindly repeat that for O=C1NCC[C@H]1Oc1noc2ccc(-c3ccc(OC(F)(F)F)cc3)cc12 [Example 72] ?
[reply] 14

[ask] Would you kindly repeat that for FC(F)(F)Oc1ccc(-c2ccc3onc(OCCn4cncn4)c3c2)cc1 [Example 58] ?
[reply] 36.7

[ask] Would you kindly repeat that for Cc1nnc(COc2noc3ccc(-c4ccc(OC(F)(F)F)cc4)cc23)o1 [Example 99] ?
[reply] 42.3

[ask] Would you kindly repeat that for CC(COc1noc2ccc(-c3ccc(OC(F)(F)F)cc3)cc12)n1cccn1 (stereo not drawn) [Example 68] ?
[reply] 35.8

[ask] Would you kindly repeat that for CC(C)c1nccn1-c1noc2ccc(-c3ccc(OC(F)(F)F)cc3)cc12 [Example 144] ?
[reply] 25.9

[ask] Would you kindly repeat that for COCCOc1noc2ccc(-c3ccc(OC(F)(F)F)cc3)cc12 [Example 60] ?
[reply] 16.8

[ask] Would you kindly repeat that for FC(F)(F)Oc1ccc(-c2ccc3onc(OCc4cccnn4)c3c2)cc1 [Example 74] ?
[reply] 15.7

[ask] Would you kindly repeat that for Cc1cc2onc(OCc3ncccn3)c2cc1-c1ccc(C(F)(F)F)cc1F [Example 28] ?
[reply] 26.7

---

Biological target: wild-type human cardiac sodium channel, hNav1.5 (Homo sapiens)
Test: Peak INa screening assay (tonic block and use-dependent block)
Assay type: cell-based
Conditions: tonic block of Peak INa, 0.1 Hz, holding -100 mV, read-out: Peak TB 3 uM
metric_name: inhibition at 3 µM (%)
Field: numeric (%). Do not append units.

COc1cc2onc(OCc3ncccn3)c2cc1-c1ccc(F)c(Cl)c1 [Example 15] :: 14.3
Cc1cnc(COc2noc3ccc(-c4ccc(OC(F)(F)F)cc4)cc23)cn1 [Example 73] :: 41.9
CC(=O)N1CCOC[C@@H]1COc1noc2ccc(-c3ccc(OC(F)(F)F)cc3)cc12 [Example 116] :: 28.9
FC(F)(F)Oc1ccc(-c2ccc3onc(NCCn4cncn4)c3c2)cc1 [Example 137] :: 43.9
Cc1ncn(-c2noc3ccc(-c4ccc(OC(F)(F)F)cc4)cc23)n1 [Example 141] :: 17.8
CC(C)[C@H](N)COc1noc2ccc(-c3ccc(OC(F)(F)F)cc3)cc12 [Example 118] :: 88.8
FC(F)(F)Oc1ccc(-c2ccc3onc(-n4cncn4)c3c2)cc1 [Example 136] :: 10.5
Cc1cc(-c2cc(C)c3onc(OCc4ncccn4)c3c2)ccc1OC(F)(F)F [Example 18] :: 27.7

Next compound, please.
[ask] Give the measured inhibition at 3 µM of FC(F)(F)Oc1ccc(-c2ccc3onc(OCCN4CCOCC4)c3c2)cc1 [Example 78] .
[reply] 38.7

---

Target: UniProtKB Q14524
Assay: Peak INa screening assay (tonic block and use-dependent block)
Type: cell-based
Conditions: tonic block of Peak INa, 0.1 Hz, holding -100 mV, read-out: Peak TB 3 uM
metric_name: inhibition at 3 µM (%)
Field: numeric (%). Do not append units.

Previously resolved entries follow.
FC(F)(F)Oc1ccc(-c2ccc3onc(N4CCOCC4)c3c2)cc1 :: 9.2
FC(F)(F)Oc1ccc(-c2ccc3onc(OCc4cnccn4)c3c2)cc1 :: 43.3
CC(C)(C)c1cn(-c2noc3ccc(-c4ccc(OC(F)(F)F)cc4)cc23)cn1 :: 39.8
FC(F)(F)Oc1ccc(-c2ccc3onc(OCc4nnc(C5CC5)s4)c3c2)cc1 :: 7.68
COc1cc(-c2ccc(OC(F)(F)F)cc2C)cc2c(OCc3ncccn3)noc12 :: 12

[ask] Give the measured inhibition at 3 µM of `COc1cc(OC(F)(F)F)ccc1-c1ccc2onc(OCc3ncccn3)c2c1` .
[reply] 38

[ask] Would you kindly repeat that for `COc1cc(-c2ccc(OC(F)(F)F)cc2)cc2c(OCc3ncccn3)noc12` ?
[reply] 10.2

[ask] Would you kindly repeat that for CN1CC(COc2noc3ccc(-c4ccc(OC(F)(F)F)cc4)cc23)CC1=O (stereo not drawn) ?
[reply] 30.4

[ask] Would you kindly repeat that for `COc1cc2onc(OCc3ncccn3)c2cc1-c1ccc(Cl)c(F)c1` ?
[reply] 10.7
